Values from patent US5032614A

Target: serotonin-induced constriction of caudal artery (Rattus norvegicus, UniProt P14842)
Construct: Caudal artery was removed and spiral strip was prepared
Sequence (P14842 whole entry): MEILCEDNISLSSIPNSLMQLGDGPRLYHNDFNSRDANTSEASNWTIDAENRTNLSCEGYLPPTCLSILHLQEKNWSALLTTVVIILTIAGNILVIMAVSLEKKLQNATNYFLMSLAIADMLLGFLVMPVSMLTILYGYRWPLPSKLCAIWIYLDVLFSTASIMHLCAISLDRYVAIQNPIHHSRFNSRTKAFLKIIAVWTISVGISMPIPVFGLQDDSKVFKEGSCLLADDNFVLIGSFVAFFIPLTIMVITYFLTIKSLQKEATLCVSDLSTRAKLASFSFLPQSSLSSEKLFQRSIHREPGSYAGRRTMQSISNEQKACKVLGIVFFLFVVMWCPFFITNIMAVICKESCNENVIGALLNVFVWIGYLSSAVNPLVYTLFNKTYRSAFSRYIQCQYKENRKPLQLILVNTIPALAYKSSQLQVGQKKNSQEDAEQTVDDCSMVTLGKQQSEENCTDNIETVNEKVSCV
Assay: Inhibition test against serotonin-induced constriction of caudal artery in rats
Settings: Wistar rat caudal artery spiral strip, from shift of serotonin ED50; read-out: Ki (inhibition constant against serotonin-induced constriction)
I'd appreciate it if you could supply Ki values for the items below.
Give the quantity in nM, number only.

IN: Recorded Ki of CNCCCCOc1ccccc1CCc1ccccc1 , please.
OUT: 70.6

IN: Recorded Ki of COc1cccc(CCc2ccccc2OCCCCN(C)C)c1 , please.
OUT: 13.1

IN: Recorded Ki of CN(C)CCCCOc1ccccc1CCc1ccccc1 , please.
OUT: 9.78

IN: Recorded Ki of CN(C)CCCCOc1ccc(Cl)cc1CCc1ccccc1 , please.
OUT: 25.7

IN: Recorded Ki of COc1cccc(CCc2ccccc2OCC(CN(C)C)OC(=O)CCC(=O)O)c1 (centres unmarked) , please.
OUT: 17.8

IN: Recorded Ki of O=C(O)C1CCN(CCCCOc2ccccc2CCc2ccccc2)CC1 , please.
OUT: 198

IN: Recorded Ki of COc1cccc(CCc2ccccc2OCC(O)CN(C)C)c1 (centres unmarked) , please.
OUT: 1.16

IN: Recorded Ki of CN(C)CCCCOc1cccc(CCc2ccccc2)c1 , please.
OUT: 517

IN: Recorded Ki of CN(C)CCCCOc1ccccc1CCc1cccc(Cl)c1 , please.
OUT: 13.5

IN: Recorded Ki of CN(C)CCOc1ccccc1CCc1ccccc1 , please.
OUT: 6.33

IN: Recorded Ki of CN(C)CCCCOc1ccc(CCc2ccccc2)cc1 , please.
OUT: 416
